Assay: chemical genetic growth profiling, strain panel (AID 1159580);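 further: tested at 20 µM; growth read once vehicle control cultures reached saturation at 30 °C; 1 = growth at the plate median or of vehicle wells; lower values mean less growth of the strain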
Conditions: S. cerevisiae deletion strains, growth OD, locus YML070W, strain DAK1, active compounds read low
The whole screen tested about 5,500 compounds, of which about 2,000 (36%) were called active. Inconclusive results (about 18%) are left out. The list shows a part of the results.
Quantity kind: normalized growth
The response must contain the number and no unit.

[[record]]
compound = "N#CCCCCOc1ccc2c(=O)cc(-c3ccccc3)oc2c1"
obs_value = 0.956

[[record]]
compound = "N/C(CSc1ccc(Cl)cc1)=N/OC(=O)c1ccc(C(F)(F)F)cc1"
obs_value = 0.852


Give me measured normalized growth, please, for this compound: `O=C(CSCc1nc(-c2ccc(Cl)cc2)cs1)N/N=C\c1cccs1` 0.93

Give me measured normalized growth, please, for this compound: `O=C1c2ccccc2O[C@@H](c2ccccc2)[C@@H]1NCc1ccccc1` 0.85

Give me measured normalized growth, please, for this compound: `COc1cc(NC(=S)Nc2ccccc2OC(F)(F)F)cc(C(F)(F)F)c1` 0.94

Give me measured normalized growth, please, for this compound: `Cc1csc2ncnc(N/N=C\c3ccccc3Cl)c12` 0.935

Give me measured normalized growth, please, for this compound: CC(O)(CNCc1ccc(Cl)cc1)CSc1ccccc1Cl (stereo not drawn) 0.974

Give me measured normalized growth, please, for this compound: COc1ccc(C2CC(c3ccccc3)=Nc3ccccc3S2)cc1OC (stereo not drawn) 0.949

Give me measured normalized growth, please, for this compound: `O=C1c2ccccc2O[C@@H](c2ccccc2)[C@@H]1NC1CCCCC1` 0.871

Give me measured normalized growth, please, for this compound: Cc1cc(C(=O)N(c2ccccc2)C(C)C2CC2)c(Cl)cc1Cl (stereo not drawn) 0.925

Give me measured normalized growth, please, for this compound: `Clc1ccccc1N/N=C\Cc1nnnn1-c1ccccc1` 0.787

Give me measured normalized growth, please, for this compound: `Fc1ccc(N/N=C\Cc2nnnn2-c2ccccc2)c(F)c1` 0.249

Give me measured normalized growth, please, for this compound: `Clc1ccc(-c2csc(Nc3ccccc3)n2)s1` 0.408
